# target_or_test_system: T1, Chryseobacterium sp-62563 deamidase polypeptide (second polypeptide, deamidase domain), wildtype (Chryseobacterium sp-62563)
# T1 sequence: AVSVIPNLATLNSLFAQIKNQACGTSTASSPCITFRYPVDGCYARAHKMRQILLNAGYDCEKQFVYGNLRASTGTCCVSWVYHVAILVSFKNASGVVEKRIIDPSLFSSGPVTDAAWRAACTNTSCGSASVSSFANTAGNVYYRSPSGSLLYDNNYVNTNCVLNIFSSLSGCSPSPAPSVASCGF
# experimental_details: cell-based or functional assay
Listed below: Relative activity of maturated deamidase (% initial rate) values for each entry.
metric_name: Relative activity of maturated deamidase (% initial rate)

| binder | endpoint_result |
| --- | --- |
| Chryseobacterium sp-62563 propeptide Y94K (protein) NQDPNLVAKESNETAMKDFGKTVPVGIEKEDGKFKISFMVTAQPYEIKDSKENAAYISMIKTAVENETPIHVFLKANTNEIAKVDKATDDDIRKFKSVFTKEVKEENRK | 49 |
| Chryseobacterium sp-62563 propeptide F95A (protein) NQDPNLVAKESNETAMKDFGKTVPVGIEKEDGKFKISFMVTAQPYEIKDSKENAAYISMIKTAVENETPIHVFLKANTNEIAKVDKATDDDIRYAKSVFTKEVKEENRK | > 100 |
| Chryseobacterium sp-62563 propeptide F99K (protein) NQDPNLVAKESNETAMKDFGKTVPVGIEKEDGKFKISFMVTAQPYEIKDSKENAAYISMIKTAVENETPIHVFLKANTNEIAKVDKATDDDIRYFKSVKTKEVKEENRK | > 100 |
| Chryseobacterium sp-62563 propeptide F95S (protein) NQDPNLVAKESNETAMKDFGKTVPVGIEKEDGKFKISFMVTAQPYEIKDSKENAAYISMIKTAVENETPIHVFLKANTNEIAKVDKATDDDIRYSKSVFTKEVKEENRK | > 100 |
